Assay: DRUGMATRIX: GABAA, Chloride Channel, TBOB radioligand binding (ligand: [3H] TBOB)
Assay type: cell membranes, Rattus norvegicus, Wistar, Cerebral cortex, Membrane
Settings: Not Active = under 50% inhibition at 10 µM
MEASURED_PARAMETER: IC50

N=C(N)NCCCCNC(=N)N.O=S(=O)(O)O [ARCAINE SULFATE]; Not Active
CC(CCc1ccccc1)NCC(O)c1ccc(O)c(C(N)=O)c1 (stereo not drawn); Not Active
CN(C)[C@@H]1C(O)=C(C(N)=O)C(=O)[C@@]2(O)C(O)=C3C(=O)c4c(O)cccc4[C@@](C)(O)[C@H]3C[C@@H]12; Not Active

----------
Molecular target: Muscarinic acetylcholine receptor M5 (Homo sapiens); further: in other assays of this panel Not Active means under 50% inhibition at 10 µM
Sequence (P08912 whole entry): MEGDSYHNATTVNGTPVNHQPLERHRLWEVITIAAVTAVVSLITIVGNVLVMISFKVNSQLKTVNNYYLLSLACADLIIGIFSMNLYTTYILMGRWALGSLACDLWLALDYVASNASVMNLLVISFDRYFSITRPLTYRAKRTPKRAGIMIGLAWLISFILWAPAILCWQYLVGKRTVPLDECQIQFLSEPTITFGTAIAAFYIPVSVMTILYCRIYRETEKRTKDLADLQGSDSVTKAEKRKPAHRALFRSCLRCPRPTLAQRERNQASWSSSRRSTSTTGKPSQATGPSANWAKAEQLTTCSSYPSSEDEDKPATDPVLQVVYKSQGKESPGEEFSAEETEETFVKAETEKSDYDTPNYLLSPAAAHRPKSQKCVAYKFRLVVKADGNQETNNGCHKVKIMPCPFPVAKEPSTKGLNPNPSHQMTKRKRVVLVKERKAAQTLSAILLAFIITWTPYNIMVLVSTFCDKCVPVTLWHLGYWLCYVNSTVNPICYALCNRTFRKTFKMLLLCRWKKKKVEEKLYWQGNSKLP
Type: cell membranes, CHO-K1, Membrane
Conditions: cho-k1
MEASURED_PARAMETER: IC50

NS(=O)(=O)c1cc2c(cc1Cl)NCNS2(=O)=O [HYDROCHLOROTHIAZIDE]; Not Active
Cc1c(-c2ccccc2)oc2c(C(=O)OCCN3CCCCC3)cccc2c1=O [FLAVOXATE]; Not Active
Oc1cccc2cccnc12; Not Active
